biological target: human PAR4 (Homo sapiens); experiment: PAR4 FLIPR assay: antagonism of agonist-peptide-induced calcium mobilization in PAR4-expressing HEK293 cells; conditions: H-Ala-Phe(4-F)-[…]NH2-induced intracellular calcium mobilization, 11-point curves
Measured metric: pIC50
Numbers only, as −log10 of the molar value.

These recorded examples may help you get a feel for the data.
[[record]]
structure_as_smiles = "COc1cnc2c(-c3nc4cc(F)c(OC[C@@H](C)OC(=O)Nc5ccc(C(=O)NCC(C)(C)O)nc5)nc4s3)cc(C)cc2n1"
measured_metric = "pIC50"
readout_value = 8.68

[[record]]
structure_as_smiles = "COc1cnc2c(-c3nc4cc(F)c(O[C@@H](C)[C@@H](C)OC(=O)Nc5ccc(C(N)=O)nc5)cc4s3)cc(Cl)cc2n1"
measured_metric = "pIC50"
readout_value = 8.80

[[record]]
structure_as_smiles = "COc1cnc2c(-c3nc4cc(F)c(OC[C@@H](C)OC(=O)Nc5ccc(CCO)nc5)cc4s3)cc(C)cc2n1"
measured_metric = "pIC50"
readout_value = 8.89

[[record]]
structure_as_smiles = "CCOc1cnc2c(-c3nc4cc(F)c(O[C@@H](C)[C@@H](C)OC(=O)Nc5cnc([C@H](C)O)nc5)cc4s3)cc(C)cc2n1"
measured_metric = "pIC50"
readout_value = 8.28


Can you give me pIC50 for all of these, one by one?
1. COCc1cnc2c(-c3nc4ccc(OCCNS(=O)(=O)c5ccccc5)cc4s3)cc(C)cc2n1
2. COc1cnc2c(-c3nc4cc(F)c(OC[C@@H](C)OC(=O)Nc5ccc(OCCO)nc5)nc4s3)cc(C)cc2n1
3. COc1cnc2c(-c3nc4cc(F)c(O[C@@H](C)[C@@H](C)OC(=O)Nc5cnc(C)nc5)nc4s3)cc(C)cc2c1

Result:
1. 8.80
2. 9.05
3. 8.64

----------
target: human PAR4 (Homo sapiens); assay: PAR4 FLIPR assay: antagonism of agonist-peptide-induced calcium mobilization in PAR4-expressing HEK293 cells; conditions: H-Ala-Phe(4-F)-[…]NH2-induced intracellular calcium mobilization, 11-point curves
Measured metric: pIC50
Answers are plain numbers, as −log10 of the molar value.

[[record]]
compound = "COCc1cnc2c(-c3nc4ccc(CO)cc4s3)cc(C)cc2n1"
readout_value = 8.44

[[record]]
compound = "COCc1cnc2c(-c3nc4c(Cl)cc(OCCNS(=O)(=O)c5cccc(F)c5)cc4s3)cc(C)cc2n1"
readout_value = 9.05

[[record]]
compound = "COC(=O)c1cc(OC)cc2sc(-c3cc(C)cc4nc(OC)cnc34)nc12"
readout_value = 7.42

[[record]]
compound = "COc1cnc2c(-c3nc4cc(F)c(OC[C@@H](C)OC(=O)Nc5ccc(C(N)=O)nc5)cc4s3)cc(C)cc2n1 [Example 434]"
readout_value = 8.85

[[record]]
compound = "COCc1cnc2c(-c3nc4c(C#N)cc(OCCNS(=O)(=O)c5ccc(F)cc5)cc4s3)cc(C)cc2n1"
readout_value = 8.08


Lab note: each compound below needs its pIC50 filled in.
1. COCc1cnc2c(-c3nc4c(C5CC5)c(F)c(OC)cc4s3)cc(C)cc2n1
2. COc1ccc(OC(=O)NCCOc2cc(C)c3nc(-c4cc(C)cc5nc(OC)cnc45)sc3n2)cc1
3. CCOc1cnc2c(-c3nc4cc(F)c(O[C@@H](C)[C@@H](C)OC(=O)Nc5cnc(OCCO)nc5)cc4s3)cc(C)cc2n1

Result:
1. 8.00
2. 7.11
3. 8.62

----------
molecular target: human PAR4 (Homo sapiens, UniProt Q96RI0); assay: PAR4 FLIPR assay: antagonism of agonist-peptide-induced calcium mobilization in PAR4-expressing HEK293 cells; details: H-Ala-Phe(4-F)-[…]NH2-induced intracellular calcium mobilization, 11-point curves
Measured metric: IC50
The reply must contain the numeric value and, after it, the unit.

[[record]]
molecule = "COCc1cnc2c(-c3nc4c(OC)c(F)c(Cl)cc4s3)cc(C)cc2n1"
target_or_system = "human PAR4 (Homo sapiens, UniProt Q96RI0)"
readout_value = "2.9 nM"

[[record]]
molecule = "COc1cnc2c(-c3nc4cc(F)c(OCCOC(=O)Nc5cccnc5)nc4s3)cc(C)cc2n1"
target_or_system = "human PAR4 (Homo sapiens, UniProt Q96RI0)"
readout_value = "6.9 nM"

[[record]]
molecule = "COCc1cnc2c(-c3nc4c(C)c(C)c(OC(C)C(C)O)cc4s3)cc(C)cc2n1 (mixture of isomers)"
target_or_system = "human PAR4 (Homo sapiens, UniProt Q96RI0)"
readout_value = "15 nM"

[[record]]
molecule = "COc1cnc2c(-c3nc4cc(F)c(OC)cc4s3)cc(C#N)cc2n1"
target_or_system = "human PAR4 (Homo sapiens, UniProt Q96RI0)"
readout_value = "21 nM"

[[record]]
molecule = "COc1cnc2c(-c3nc4cc(F)c(OC[C@@H](C)OC(=O)Nc5ccnc(OCCO)c5)nc4s3)cc(C)cc2n1"
target_or_system = "human PAR4 (Homo sapiens, UniProt Q96RI0)"
readout_value = "2.9 nM"


Dear colleague, could you please provide IC50 for the molecules listed below?
1. COc1ccc2nc(-c3cc(C)cc4nc(OC(F)F)cnc34)sc2c1
2. COc1cnc2c(-c3nc4cc(F)c(OC[C@@H](C)OC(=O)Nc5ccc(C(=O)N6CCO[C@H](CO)C6)nc5)cc4s3)cc(C)cc2n1

Result:
2.1 nM
3 nM

----------
Molecular target: human PAR4 (Homo sapiens)
Sequence (Q96RI0 18-385): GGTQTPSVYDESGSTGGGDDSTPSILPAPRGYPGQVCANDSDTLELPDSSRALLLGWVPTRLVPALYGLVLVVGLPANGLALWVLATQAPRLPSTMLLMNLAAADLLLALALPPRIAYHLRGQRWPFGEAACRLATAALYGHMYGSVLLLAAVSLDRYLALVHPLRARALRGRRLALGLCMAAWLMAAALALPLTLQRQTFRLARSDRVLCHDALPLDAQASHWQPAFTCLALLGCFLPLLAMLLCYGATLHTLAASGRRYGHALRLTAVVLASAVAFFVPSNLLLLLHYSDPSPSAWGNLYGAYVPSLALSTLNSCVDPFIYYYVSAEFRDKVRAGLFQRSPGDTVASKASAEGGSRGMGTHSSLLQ
Assay: PAR4 FLIPR assay: antagonism of agonist-peptide-induced calcium mobilization in PAR4-expressing HEK293 cells
Conditions: H-Ala-Phe(4-F)-[…]NH2-induced intracellular calcium mobilization, 11-point curves
I'd appreciate it if you could supply pIC50 values for the items below.
Answers are plain numbers, as −log10 of the molar value.

Worked examples, 6 compounds total:
[[record]]
structure_as_smiles = "COc1cnc2c(-c3nc4c(F)c(F)c(OC)cc4s3)cc(C)cc2n1"
measured_metric = "pIC50"
readout_value = 8.34

[[record]]
structure_as_smiles = "COc1cnc2c(-c3nc4cc(F)c(O[C@@H](C)[C@@H](C)OC(=O)Nc5ccc(C(=O)N6CC[C@H](CO)C6)nc5)cc4s3)cc(C)cc2n1"
measured_metric = "pIC50"
readout_value = 9.22

[[record]]
structure_as_smiles = "COCc1cnc2c(-c3nc4ccc(OC)nc4s3)cc(C)cc2n1"
measured_metric = "pIC50"
readout_value = 8.77

[[record]]
structure_as_smiles = "COc1cnc2c(-c3nc4cc(F)c(O[C@@H](C)[C@@H](C)OC(=O)Nc5ccnnc5)cc4s3)cc(C)cc2n1"
measured_metric = "pIC50"
readout_value = 8.47

[[record]]
structure_as_smiles = "COCc1cnc2c(-c3nc4c(C)cc(OCCNS(=O)(=O)c5ccc(F)cc5)cc4s3)cc(C(=O)N3CCCCC3)cc2n1"
measured_metric = "pIC50"
readout_value = 6.80

[[record]]
structure_as_smiles = "COc1cnc2c(-c3nc4cc(F)c(O[C@@H](C)[C@@H](C)OC(=O)Nc5cncc(F)c5)cc4s3)cc(Cl)cc2c1"
measured_metric = "pIC50"
readout_value = 8.57


Q: Give its pIC50 value. Item: "COCc1cnc2c(-c3nc4c(C)cc(OCCNS(=O)(=O)c5ccc(F)cc5)nc4s3)cc(C)cc2n1"
Result: 8.92

----------
Molecular target: human PAR4 (Homo sapiens)
Sequence (Q96RI0 18-385): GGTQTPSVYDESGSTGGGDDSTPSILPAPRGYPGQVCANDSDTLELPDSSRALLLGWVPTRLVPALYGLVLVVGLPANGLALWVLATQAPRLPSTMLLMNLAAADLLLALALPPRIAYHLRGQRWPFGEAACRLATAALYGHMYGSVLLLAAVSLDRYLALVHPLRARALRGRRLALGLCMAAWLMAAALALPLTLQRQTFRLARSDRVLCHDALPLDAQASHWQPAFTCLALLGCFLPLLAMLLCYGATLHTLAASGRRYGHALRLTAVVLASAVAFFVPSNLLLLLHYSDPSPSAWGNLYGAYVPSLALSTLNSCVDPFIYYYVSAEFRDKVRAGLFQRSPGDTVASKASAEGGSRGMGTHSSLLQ
Assay: PAR4 FLIPR assay: antagonism of agonist-peptide-induced calcium mobilization in PAR4-expressing HEK293 cells
Settings: H-Ala-Phe(4-F)-[…]NH2-induced intracellular calcium mobilization, 11-point curves
Decision: IC50 beneath 1 nM gives 1; IC50 meeting or exceeding 1 nM gives -1.

[[record]]
compound = "COCc1cnc2c(-c3nc4c(Cl)cc(OCCNS(=O)(=O)c5ccccc5)cc4s3)cc(C)cc2n1"
target_or_system = "human PAR4 (Homo sapiens)"
label_value = 1

[[record]]
compound = "COc1cc(C(O)C2(C)CCCCC2)c2nc(-c3cc(C)cc4nc(OC)cnc34)sc2c1 (stereo not drawn) [Example 676]"
target_or_system = "human PAR4 (Homo sapiens)"
label_value = -1

[[record]]
compound = "CCOc1cnc2c(-c3nc4cc(F)c(O[C@@H](C)[C@@H](C)OC(=O)Nc5cnc(CO)nc5)cc4s3)cc(C)cc2n1"
target_or_system = "human PAR4 (Homo sapiens)"
label_value = 1


Q: Given "COc1cnc2c(-c3nc4cc(F)c(OC[C@@H](C)OC(=O)Nc5cnc(C)nc5)cc4s3)cc(C#N)cc2n1" , is recorded IC50 strictly lower than 1 nM?
Result: -1

Q: Record "COc1cnc2c(-c3nc4cc(F)c(OC[C@@H](C)OC(=O)Nc5ccc(C#N)nc5)cc4s3)cc(C#N)cc2n1" : is its IC50 strictly below 1 nM?
Result: -1

Q: Is IC50 of "COc1cnc2c(-c3nc4c(Cl)c(F)c(OCCOC(=O)Nc5ccc(-n6cnc(C)n6)nc5)cc4s3)cc(C)cc2n1" strictly below 1 nM?
Result: -1

Q: Decide: IC50 of "COc1cnc2c(-c3nc4cc(F)c(O[C@@H](C)[C@@H](C)OC(=O)Nc5cncc(F)c5)nc4s3)cc(C)cc2n1" strictly below 1 nM?
Result: -1

Data origin, for the record: patent US12060347B2
